Test system: MT4
method-summary: Concentration required to inhibit spread of native HIV-1(K-60) protease obtained from PI-resistant clinical isolate in MT-4 human T-lymphoid cells
Type: functional
experimental-context: read-out: CIC95
The entries below come with measured IC95 values attached.

Example cases with answers are listed next.
COc1cncc(-c2cnc(C(C)(C)N3CCN(C[C@@H](O)C[C@@H](Cc4nnc(C)o4)C(=O)N[C@H]4CCOC[C@H]4O)[C@H](C(=O)NCC(F)(F)F)C3)o2)c1; > 1000 nM
CC(C)(C)NC(=O)[C@@H]1CN(Cc2cccnc2)CCN1C[C@@H](O)C[C@@H](Cc1ccccc1)C(=O)N[C@H]1c2ccccc2C[C@H]1O; > 1000 nM
CC(C)(c1ncc(-c2ccc(F)cc2)o1)N1CCN(C[C@@H](O)C[C@@H](Cc2nnc(-c3ccccc3)o2)C(=O)N[C@H]2CCOC[C@H]2O)[C@H](C(=O)NCC(F)(F)F)C1; ≤ 8 nM
O=C(N[C@H]1CCOC[C@H]1O)[C@H](Cc1nnc(-c2ccccc2)o1)C[C@H](O)CN1CCN(Cc2ccc(-c3ccc(Cl)cc3)o2)C[C@H]1C(=O)NCC(F)(F)F; ≤ 8 nM

Challenge: # get_value(readout='IC95', item= CCCc1nnc(C[C@H](C[C@H](O)CN2CCN(Cc3ccc(-c4ccc(Cl)cc4)o3)C[C@H]2C(=O)NCC(F)(F)F)C(=O)N[C@H]2CCOC[C@H]2O)o1 )
Response given: ≤ 8 nM

====

Recorded pIC50 values for a group of molecules are listed next.
target-desc: Human immunodeficiency virus type 1 protease (Human immunodeficiency virus 1, UniProt Q72874)
method-summary: Inhibitory concentration against HIV-1 protease (NL4-3)
pIC50: −log10 of the molar value.

CC(C)(c1ncc(-c2ccc(Cl)cc2)o1)N1CCN(C[C@@H](O)C[C@@H](Cc2nnc(-c3ccccc3)o2)C(=O)N[C@H]2CCOC[C@H]2O)[C@H](C(=O)NCC(F)(F)F)C1; > 11.00
Cc1nnc(C[C@H](C[C@H](O)CN2CCN(Cc3ccc(-c4ccc(Cl)cc4)o3)C[C@H]2C(=O)NCC(F)(F)F)C(=O)N[C@H]2CCOC[C@H]2O)o1; > 11.00

Here's the next entry for you.
Challenge: Requested field: pIC50. Item: CCCc1nnc(C[C@H](C[C@H](O)CN2CCN(C(C)(C)c3ncc(-c4ccc(Cl)cc4)o3)C[C@H]2C(=O)NCC(F)(F)F)C(=O)N[C@H]2CCOC[C@H]2O)o1
Response given: > 11.00
